- assaySystem: Galactocerebrosidase (Homo sapiens)
- assayProcedure: A Novel Cell-Based Assay to Identify Small Molecules for B -Galactocerebrosidase; note: nearly all actives have a fitted effect of over 65% in size
- reportedConditions: 145M-Twi-hGALC-G270D cells (Twitcher mouse brain line with human GALC G270D), HMU-beta-Gal fluorescence, 48 h; series mostly up to 57.5 µM
About 65 (0.1%) of roughly 45,000 compounds were called active. Calls come from the whole dose curve; as a rule, active = well fitted activation curve with a large enough effect; inconclusive = small, poorly fitted or top-dose-only effect; inactive = no such curve, though single readings can be large or run the other way. The full list was thinned out, with actives kept by preference.
API: response.call in active, inactive

Q: Short answer needed: outcome of this test for "COc1ccc(-c2c(C)c3ccc(O)c(CN4CCCC4)c3oc2=O)cc1OC" ?
Ans: active

Q: Short answer needed: outcome of this test for "Cc1cccc(Nc2cc(C)nc(-n3nc(C)cc3C)n2)c1" ?
Ans: inactive

Q: Short answer needed: outcome of this test for COc1cc(Cl)c(NC(=O)CC(C)S(=O)(=O)c2cc3c(cc2C)NC(=O)CO3)c(OC)c1 (stereo not given) ?
Ans: inactive

Q: Short answer needed: outcome of this test for "Cc1ccc(Oc2c(C(F)(F)F)oc3c(CN4CCCCC4)c(O)ccc3c2=O)cc1" ?
Ans: inactive

Q: Short answer needed: outcome of this test for Cc1cc(C)c(-c2n[nH]c3c2C(c2ccccc2F)N(CCO)C3=O)c(O)c1 (stereo not given) ?
Ans: inactive

Q: Short answer needed: outcome of this test for "Cc1ccc(NC(=O)CSc2nc3ccccc3c3nc(CCn4cncc4C)nn23)cc1F" ?
Ans: inactive

Q: Short answer needed: outcome of this test for "COc1ccc(-c2c(C)c3ccc(O)c(CN4CCN(C)CC4)c3oc2=O)cc1OC" ?
Ans: inactive

Q: Short answer needed: outcome of this test for "COc1ccc(CNC(=O)c2ccc3c(O)c(S(=O)(=O)c4ccccc4)c(=O)[nH]c3c2)cc1" ?
Ans: inactive

Q: Short answer needed: outcome of this test for "Cc1ccccc1-c1nc(CS(=O)(=O)CC(=O)Nc2cc(Cl)cc(Cl)c2)c(C)o1" ?
Ans: inactive

Q: Short answer needed: outcome of this test for CCCCN1C(=O)c2[nH]nc(-c3ccccc3O)c2C1c1cccc(OCc2ccccc2)c1 (stereo not given) ?
Ans: inactive
